Each entry below lists one item and its recorded pIC50 value.
Test system: U-937
Test: Cytotoxicity towards U-937 cell line
Type: cell-based
Settings: Homo sapiens
pIC50: −log10 of the molar value.

{"compound": "O=C(NCCCc1ccccn1)c1ccc(-n2cccn2)c(C#Cc2cccnc2)c1 [TT-02941]", "pIC50": "5.00 to 5.30"}
{"compound": "O=C(NCCCn1ccnc1)c1ccc(-n2cccn2)c(C#Cc2cccnc2)c1 [TT-03264]", "pIC50": "> 6.00"}
{"compound": "O=C(NCCCc1cn[nH]c1)c1ccc(N2CCC3(CCCCC3)C2)c(C#Cc2ccc(F)cc2)c1 [TT-03590]", "pIC50": "> 6.00"}
{"compound": "O=C(NCCCc1cn[nH]c1)c1ccc(N2CCNCC2)c(C#Cc2ccc(F)cc2)c1 [TT-03597]", "pIC50": "> 6.00"}
{"compound": "Cc1nn(-c2ccc(C(=O)NCCc3cnccn3)cc2C#Cc2ccccc2)c(C)c1C [TT-02942]", "pIC50": "5.00 to 5.30"}
{"compound": "CC(C)(C)NC(=O)c1ccc(-n2cccn2)c(C#Cc2ccccn2)c1 [TT-02946]", "pIC50": "5.00 to 5.30"}
{"compound": "Cn1cnnc1C1CCN(C(=O)c2ccc(-n3cccn3)c(C#Cc3ccccc3)c2)C1 (stereo not drawn) [TT-02803]", "pIC50": "> 6.00"}
{"compound": "Cc1ccn(CCNC(=O)c2ccc(-n3cccn3)c(C#Cc3ccccc3)c2)n1 [TT-02692]", "pIC50": "> 6.00"}

// below: pIC50 requested for another compound
Lab note: measured pIC50 of Cn1cnc(CNC(=O)c2ccc(-n3cccn3)c(C#Cc3ccccc3)c2)c1 [TT-02721] was < 4.70

* * *

Each entry below lists one item and its recorded IC50 value.
Test system: U-937
Test: Cytotoxicity towards U-937 cell line
Assay type: cell-based
Conditions: Homo sapiens

Example cases with answers are listed next.
{"compound": "Cc1nc(C)n(CCNC(=O)c2ccc(-n3cccn3)c(C#Cc3ccccc3)c2)n1", "IC50": "< 1000 nM"}
{"compound": "O=C(NCCc1c[nH]cn1)c1ccc(-n2cccn2)c(C#Cc2ccccc2)c1", "IC50": "10000 to 20000 nM"}
{"compound": "O=C(NCCCc1cn[nH]c1)c1ccc(N2CCCCC2CCO)c(C#Cc2ccc(F)cc2)c1 (centres unmarked)", "IC50": "< 1000 nM"}
{"compound": "O=C(NCCn1ccnc1)c1ccc(-n2cccn2)c(C#Cc2ccccc2)c1", "IC50": "< 1000 nM"}

Lab note: measured IC50 of `NCCOCCOCCOCCN1CCN(c2ccc(C(=O)NCCCn3ccnc3)cc2C#Cc2ccc(F)cc2)CC1` was < 1000 nM

Lab note: measured IC50 of `Nc1cccc(C#Cc2cc(C(=O)NCCCc3cn[nH]c3)ccc2-n2cccn2)n1` was < 1000 nM

Lab note: measured IC50 of `Cc1nccn1CCCNC(=O)c1ccc(-n2cccn2)c(C#Cc2ccccc2)c1` was 1000 to 5000 nM

Lab note: measured IC50 of `O=C(NCCCc1cn[nH]c1)c1ccc(-n2cccn2)c(C#CC2(O)CCCCC2)c1` was 5000 to 10000 nM

* * *

System: MV4-11
Test: Cytotoxicity towards MV4-11 cell line
Assay type: cell-based
Details: Homo sapiens
pIC50: −log10 of the molar value.
parameter: pIC50

{"molecule": "Cc1cccc(C#Cc2cc(C(=O)NCCCc3cn[nH]c3)ccc2-n2cccn2)c1", "observed_measurement": "> 6.00"}

Lab note: measured pIC50 of `O=C(NCCc1c[nH]cn1)c1ccc(-n2cccn2)c(C#Cc2ccccc2)c1` was 5.00 to 5.30

Lab note: measured pIC50 of O=C(NCCCc1cn[nH]c1)c1ccc(N2CCCCC2CCO)c(C#Cc2ccc(F)cc2)c1 (stereo not shown) was > 6.00

Lab note: measured pIC50 of `CC(C)(C)OC(=O)NCc1ccc(C#Cc2cc(C(=O)NCCCc3cn[nH]c3)ccc2-n2cccn2)cc1` was 5.30 to 6.00

Lab note: measured pIC50 of `O=C(NCCCc1cn[nH]c1)c1ccc(-n2cccn2)c(C#Cc2ccc(F)cn2)c1` was > 6.00

Lab note: measured pIC50 of `O=C(NCCCc1cn[nH]c1)c1ccc(N2CCOCC2)c(C#Cc2ccccc2)c1` was > 6.00

Lab note: measured pIC50 of `O=C(NCCCn1ccnc1)c1ccc(-n2cccn2)c(C#Cc2ccccn2)c1` was > 6.00

* * *

Each entry below lists one item and its recorded IC50 value.
Tested on: MV4-11
Experiment: Cytotoxicity towards MV4-11 cell line
Format: cell-based
Settings: Homo sapiens

{"smiles_code": "Cn1cnc(CNC(=O)c2ccc(-n3cccn3)c(C#Cc3ccccc3)c2)c1", "study_target": "MV4-11", "IC50": "> 20 µM"}
{"smiles_code": "O=C(NCCCn1ccnc1)c1ccc(-n2cccn2)c(C#Cc2ccccc2F)c1", "study_target": "MV4-11", "IC50": "< 1 µM"}
{"smiles_code": "Cc1nn(-c2ccc(C(=O)NCCc3cnccn3)cc2C#Cc2ccccc2)c(C)c1C", "study_target": "MV4-11", "IC50": "> 20 µM"}
{"smiles_code": "Cn1nnnc1SCCNC(=O)c1ccc(-n2cccn2)c(C#Cc2ccccc2)c1", "study_target": "MV4-11", "IC50": "10 to 20 µM"}
{"smiles_code": "NCCOCCOCCOCCN1CCN(c2ccc(C(=O)NCCCn3ccnc3)cc2C#Cc2ccc(F)cc2)CC1", "study_target": "MV4-11", "IC50": "< 1 µM"}
{"smiles_code": "O=C(NCCCn1cccn1)c1ccc(-n2cccn2)c(C#Cc2ccccc2)c1", "study_target": "MV4-11", "IC50": "> 20 µM"}
{"smiles_code": "Cn1cc(CCCNC(=O)c2ccc(-n3cccn3)c(C#Cc3ccc(F)cc3)c2)cn1", "study_target": "MV4-11", "IC50": "< 1 µM"}
{"smiles_code": "O=C(NCCCc1cn[nH]c1)c1ccc(-c2cccnc2)c(C#Cc2ccccc2)c1", "study_target": "MV4-11", "IC50": "< 1 µM"}
{"smiles_code": "Cc1nccn1CCCNC(=O)c1ccc(N2CCN(CCOCCOCCOCCN)CC2)c(C#Cc2ccc(F)cc2)c1", "study_target": "MV4-11", "IC50": "1 to 5 µM"}
{"smiles_code": "O=C(NCc1ccco1)c1ccc(-n2cccn2)c(C#Cc2cccnc2)c1", "study_target": "MV4-11", "IC50": "> 20 µM"}

Lab note: measured IC50 of `O=C(NCCCc1cn[nH]c1)c1ccc(-n2cccn2)c(C#Cc2ccc(C(F)(F)F)cc2)c1` was 1 to 5 µM

Lab note: measured IC50 of `O=C(NCCc1cnccn1)c1ccc(-n2cccn2)c(C#Cc2ccccc2)c1` was 10 to 20 µM

Lab note: measured IC50 of `O=C(NCc1cccnc1)c1ccc(-n2cccn2)c(C#Cc2cccnc2)c1` was > 20 µM

Lab note: measured IC50 of `C[C@@H]1CN(c2ncc(C(=O)NCCCc3cn[nH]c3)cc2C#Cc2ccc(Cl)cc2)C[C@H](C)O1` was < 1 µM

Lab note: measured IC50 of `O=C(NCCCc1cn[nH]c1)c1ccc(-n2cccn2)c(C#Cc2ccc3nccn3c2)c1` was < 1 µM

Lab note: measured IC50 of `O=C(NCCCc1cn[nH]c1)c1ccc(-n2cccn2)c(C#Cc2cccc(Cl)c2)c1` was < 1 µM

Lab note: measured IC50 of `NC(=O)c1cccc(C#Cc2cc(C(=O)NCCCc3cn[nH]c3)ccc2-n2cccn2)c1` was < 1 µM

* * *

System: MV4-11
Experiment: Cytotoxicity towards MV4-11 cell line
Format: cell-based
Settings: Homo sapiens
pIC50: −log10 of the molar value.
parameter: pIC50

Lab note: measured pIC50 of O=C(NCCCn1ccnc1)c1ccc(-n2cccn2)c(CCc2ccccc2)c1 [TT-03574] was 5.00 to 5.30

Lab note: measured pIC50 of O=C(NCCCc1cn[nH]c1)c1ccc(-n2cccn2)c(C#Cc2cccnc2)c1 [TT-03303] was > 6.00

Lab note: measured pIC50 of O=C(NCCCn1ccnc1)c1ccc(-n2cccn2)c(C#Cc2ccc(C(F)(F)F)cc2)c1 [TT-02747] was 4.70 to 5.00

Lab note: measured pIC50 of O=C(NCCCc1cn[nH]c1)c1ccc(-n2cnnc2)c(C#Cc2ccccc2)c1 [TT-03237] was < 4.70

Lab note: measured pIC50 of CC(C)(C)NC(=O)c1ccc(-n2cccn2)c(C#Cc2ccccn2)c1 [TT-02946] was < 4.70

* * *

Tested on: MV4-11
Assay: Cytotoxicity towards MV4-11 cell line
Assay type: cell-based
Conditions: Homo sapiens
parameter: IC50

Example cases with answers are listed next.
{"compound": "CC1(C)CCCN(c2ccc(C(=O)NCCCc3cn[nH]c3)cc2C#Cc2ccc(F)cc2)C1 [TT-03676]", "IC50": "< 1000 nM"}
{"compound": "O=C(NCCCc1cn[nH]c1)c1ccc(-c2ccncc2)c(C#Cc2ccccc2)c1 [TT-03246]", "IC50": "< 1000 nM"}
{"compound": "O=C(NCCCn1ccnc1)c1ccc(-n2cccn2)cc1 [TT-03071]", "IC50": "1000 to 5000 nM"}
{"compound": "O=C(NCCCn1ccnc1)c1ccc(-n2cccn2)c(C#Cc2cccc(O)c2)c1 [TT-03312]", "IC50": "< 1000 nM"}
{"compound": "O=C1CC2CCC(CN1)N2c1ncc(C(=O)NCCCc2cn[nH]c2)cc1C#Cc1ccc(F)cc1 (stereo not shown) [TT-03765]", "IC50": "< 1000 nM"}

// below: IC50 requested for another compound
Lab note: measured IC50 of O=C(c1ccc(-n2cccn2)c(C#Cc2ccccc2)c1)N1CCCC(Cn2ccnc2)C1 (stereo not shown) [TT-02796] was 10000 to 20000 nM
